System: TTR
Test: TTR editing in primary human hepatocytes transfected with Spy Cas9 protein (RNP) loaded with dgRNAs (Table 8)
Type: cell-based
Settings: dgRNA transfected with Spy Cas9 protein (RNP)
// Avg % Insert lookup, one value per entry
Give the number; % is assumed, so skip it.

The reported TTR Avg % Insert of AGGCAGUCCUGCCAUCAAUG (tested as dual guide RNA, chemistry not given here) [CR003348] is 13.74

Further cases:
Form: item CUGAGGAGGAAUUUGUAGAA (tested as dual guide RNA, chemistry not given here) [CR003364] ; test system TTR; Avg % Insert: 23.93

Observed Avg % Insert, TTR, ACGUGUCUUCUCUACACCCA (tested as dual guide RNA, chemistry not given here) [CR005302] : 47.32

Item: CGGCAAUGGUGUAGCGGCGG (tested as dual guide RNA, chemistry not given here) [CR003376] | System: TTR | Avg % Insert: 4.86

Origin of values: patent US11795460B2
